- Test system: HOP-62 NSCLC
- ASSAY PROTOCOL: NCI tumour cell line growth inhibition, 48 h
// values below are reported TGI

>  <MOLECULE>
CC1(C=O)C(=O)CCC2(C)C3CC(=O)OC3CCC12 (configuration not stated)

>  <TARGET OR SYSTEM>
HOP-62 NSCLC

>  <TGI>
> 100 µM

$$$$
>  <MOLECULE>
COc1cccc(C2c3cc4c(cc3OC(NNc3ccccc3)C2C)OCO4)c1OC (configuration not stated)

>  <TARGET OR SYSTEM>
HOP-62 NSCLC

>  <TGI>
> 100 µM

$$$$
>  <MOLECULE>
COc1ccc2nc3n(c2c1)C(c1c(F)cccc1Cl)SC3 (configuration not stated)

>  <TARGET OR SYSTEM>
HOP-62 NSCLC

>  <TGI>
> 100 µM

$$$$
>  <MOLECULE>
C=C(C)C12OC3(c4ccccc4)OC1C1C4OC4(CO)C(O)C4(O)C(=O)C(C)=CC4C1(O3)C(C)C2OC(=O)/C=C/C=C/c1ccccc1 (configuration not stated)

>  <TARGET OR SYSTEM>
HOP-62 NSCLC

>  <TGI>
1.65 µM

$$$$
>  <MOLECULE>
CC1CN=C(c2cccc(-c3ccc(-c4ccccc4)o3)c2)N1 (configuration not stated)

>  <TARGET OR SYSTEM>
HOP-62 NSCLC

>  <TGI>
6.37 µM

$$$$
>  <MOLECULE>
O=C1CC2(CCC(O)(c3ccco3)C(C(=O)c3ccco3)C2)C(=O)c2ccccc2N1 (configuration not stated)

>  <TARGET OR SYSTEM>
HOP-62 NSCLC

>  <TGI>
> 100 µM

$$$$
>  <MOLECULE>
Cc1cn(C2OC(CO)C(O)C2O)c(=O)[nH]c1=O (configuration not stated)

>  <TARGET OR SYSTEM>
HOP-62 NSCLC

>  <TGI>
> 1000 µM

$$$$
>  <MOLECULE>
O=C(/C=C/c1ccccc1O)c1cccs1

>  <TARGET OR SYSTEM>
HOP-62 NSCLC

>  <TGI>
> 100 µM

$$$$
>  <MOLECULE>
COc1ccc(NC(=O)CC(=O)NN2C(=O)/C(=C/c3ccc(N(CCC#N)CCC#N)cc3C)N=C2/C=C\c2ccccc2)cc1

>  <TARGET OR SYSTEM>
HOP-62 NSCLC

>  <TGI>
> 100 µM

$$$$
>  <MOLECULE>
COC(=O)CNC(=O)CCSc1nnc(COc2ccc(Cl)cc2)n1-c1ccccc1

>  <TARGET OR SYSTEM>
HOP-62 NSCLC

>  <TGI>
> 100 µM

$$$$
>  <MOLECULE>
NC(Cc1cnc(I)[nH]1)C(=O)O (configuration not stated)

>  <TARGET OR SYSTEM>
HOP-62 NSCLC

>  <TGI>
> 100 µM

$$$$
>  <MOLECULE>
Nc1nc(CCl)nc(N2CCOCC2)n1

>  <TARGET OR SYSTEM>
HOP-62 NSCLC

>  <TGI>
44.5 µM

$$$$
>  <MOLECULE>
O=C1c2ccccc2C(=O)c2c1ccc(O)c2O

>  <TARGET OR SYSTEM>
HOP-62 NSCLC

>  <TGI>
> 100 µM

$$$$
>  <MOLECULE>
Cc1cc2nn(C3CCCO3)nc2cc1C (configuration not stated)

>  <TARGET OR SYSTEM>
HOP-62 NSCLC

>  <TGI>
> 100 µM

$$$$
>  <MOLECULE>
C/C(=N\NC(=S)N1CCN(c2ccccn2)CC1)c1cccc(C)n1

>  <TARGET OR SYSTEM>
HOP-62 NSCLC

>  <TGI>
20.1 µM

$$$$
>  <MOLECULE>
COc1ccc(OC)c(CCc2cc(OC)ccc2OC)c1

>  <TARGET OR SYSTEM>
HOP-62 NSCLC

>  <TGI>
> 10 µM

$$$$
>  <MOLECULE>
O=c1[nH]c2ccccc2c(O)c1/C=N/C(=S)NCCc1ccccc1

>  <TARGET OR SYSTEM>
HOP-62 NSCLC

>  <TGI>
> 100 µM

$$$$
>  <MOLECULE>
COC(=O)[C@]12CC[C@@H](C(=O)/C=C/c3cccnc3)[C@@H]1[C@H]1CC[C@@H]3[C@@]4(C)C/C(=C/c5cccnc5)C(=O)C(C)(C)[C@@H]4CC[C@@]3(C)[C@]1(C)CC2

>  <TARGET OR SYSTEM>
HOP-62 NSCLC

>  <TGI>
2.34 µM

$$$$
>  <MOLECULE>
O=C1OC(CC(=O)c2ccc(Cl)cc2)C(Cl)=C1Cl (configuration not stated)

>  <TARGET OR SYSTEM>
HOP-62 NSCLC

>  <TGI>
> 100 µM

$$$$
>  <MOLECULE>
CCOP(=O)(OCC)/C(C#N)=C/c1nccn1C

>  <TARGET OR SYSTEM>
HOP-62 NSCLC

>  <TGI>
> 100 µM

$$$$
>  <MOLECULE>
CC(=O)Nc1ccc(S(=O)(=O)/N=C2\C=CC(=O)c3ccccc32)cc1

>  <TARGET OR SYSTEM>
HOP-62 NSCLC

>  <TGI>
22.8 µM

$$$$
>  <MOLECULE>
C[C@@]1(O)C2C3CC4C5C3C1[C@](O)(C42)[C@H]5Br (some centres not stated)

>  <TARGET OR SYSTEM>
HOP-62 NSCLC

>  <TGI>
> 100 µM

$$$$

====

- Tested on: BT-549 breast
- ASSAY PROTOCOL: NCI tumour cell line growth inhibition, 48 h
Where a SMILES comes first, the peptide text is derived from it. [ ]: non-standard residue; d: D form. The star is where a group is joined. ξ: configuration not given here. ξHyp = O=C(O)C1CC(O)CN1; Cbz = O=C(OCc1ccccc1)*
TGI for assorted compounds

>  <COMPOUND>
N=C(N)c1ccc(-c2ccc(-c3cccs3)o2)cc1

>  <QUANTITY UNIT>
µM

>  <LT GT EQ>
=

>  <TGI>
4.02

$$$$
>  <COMPOUND>
C=CCCC1CCCCNC1=S (stereo not given)

>  <QUANTITY UNIT>
µM

>  <LT GT EQ>
>

>  <TGI>
10

$$$$
>  <COMPOUND>
CC1(C)C2CCC(=O)C1C(OCc1ccccc1)C2 (stereo not given)

>  <QUANTITY UNIT>
µM

>  <LT GT EQ>
>

>  <TGI>
100

$$$$
>  <COMPOUND>
CN(C)c1ccc(N=Nc2ccc(Br)cn2)c(O)c1

>  <QUANTITY UNIT>
µM

>  <LT GT EQ>
>

>  <TGI>
100

$$$$
>  <COMPOUND>
CC(C)=C[C@@H]1C[C@H](C)[C@H]2CC[C@H](C)c3c(O)c(OC4OCC(O)C(O)C4O)c(C)c1c32 (stereo not given in full)

>  <QUANTITY UNIT>
µM

>  <LT GT EQ>
=

>  <TGI>
39.9

$$$$
>  <COMPOUND>
O=C1CCN(CCC(F)(F)C(F)(F)C(F)(F)C(F)(F)C(F)(F)C(F)(F)F)C(=S)N1CCC(F)(F)C(F)(F)C(F)(F)C(F)(F)C(F)(F)C(F)(F)F

>  <QUANTITY UNIT>
µM

>  <LT GT EQ>
>

>  <TGI>
100

$$$$
>  <COMPOUND>
COc1c(O)ccc(C2=Cc3ccc(O)cc3OC2)c1OC

>  <QUANTITY UNIT>
µM

>  <LT GT EQ>
>

>  <TGI>
82.4

$$$$
>  <COMPOUND>
Nc1nc(CCl)nc(N2CCOCC2)n1

>  <QUANTITY UNIT>
µM

>  <LT GT EQ>
>

>  <TGI>
100

$$$$
>  <COMPOUND>
COc1ccc(-n2cnc3c(NCC(=O)O)ncnc32)cc1

>  <QUANTITY UNIT>
µM

>  <LT GT EQ>
>

>  <TGI>
100

$$$$
>  <COMPOUND>
N#Cc1nc(/C=C/c2nc(C#N)c(N)o2)oc1N

>  <QUANTITY UNIT>
µM

>  <LT GT EQ>
>

>  <TGI>
10

$$$$
>  <COMPOUND>
COc1ccc(-c2cn(-c3cccc(C(=O)/C=C/c4cc(OC)c(OC)c(OC)c4)c3)c(=O)[nH]2)cc1

>  <QUANTITY UNIT>
µM

>  <LT GT EQ>
=

>  <TGI>
8.92

$$$$
>  <COMPOUND>
C=C1C(=O)O[C@H]2[C@H]1CC/C(COC(=O)NCc1c[nH]c3ccc(Br)cc13)=C\CC[C@@]1(C)O[C@@H]21

>  <QUANTITY UNIT>
µM

>  <LT GT EQ>
=

>  <TGI>
2.92

$$$$
>  <COMPOUND>
CC(=O)O[C@H]1[C@@H]2OC(=O)C3(CC3)C2C[C@H]2O[C@]2(C)CC/C=C(\C)CCC[C@@H]1C (stereo not given in full)

>  <QUANTITY UNIT>
µM

>  <LT GT EQ>
=

>  <TGI>
46.2

$$$$
>  <COMPOUND>
CNC[C@@H](NC(=O)c1ccc(-c2nc([C@H]3CC[C@H](O)[C@@H](F)C3)cnc2N)cc1F)c1cc(F)cc(Br)c1

>  <QUANTITY UNIT>
µM

>  <LT GT EQ>
=

>  <TGI>
25.3

$$$$
>  <COMPOUND>
CCC(C)C1=NC(C(=O)N/C=C\c2c[nH]c3cc(Br)c(Br)cc23)(C(C)C)NC1=O (stereo not given)

>  <QUANTITY UNIT>
µM

>  <LT GT EQ>
=

>  <TGI>
71.2

$$$$
>  <COMPOUND>
Brc1cccc(Nc2ncnc3sc4c(c23)CCC2(C4)OCCO2)c1

>  <QUANTITY UNIT>
µM

>  <LT GT EQ>
=

>  <TGI>
75.2

$$$$
>  <COMPOUND>
CC(C)c1nc(Cl)nc(Cl)c1Cl

>  <QUANTITY UNIT>
µM

>  <LT GT EQ>
=

>  <TGI>
0.0335

$$$$
>  <COMPOUND>
COc1ccc2[nH]c(Cl)c(/C=C3/C(=O)N(c4ccccc4)c4ccccc43)c2c1

>  <QUANTITY UNIT>
µM

>  <LT GT EQ>
=

>  <TGI>
11.3

$$$$
>  <COMPOUND>
NC(=O)CNC(=O)C1CC(O)CN1C(=O)OCc1ccccc1 (stereo not given) (Cbz-[ξHyp]-Gly-NH2)

>  <QUANTITY UNIT>
µM

>  <LT GT EQ>
>

>  <TGI>
100

$$$$
>  <COMPOUND>
N#CC(C#N)=C1/C(=C/C=C/C=C/C=C/c2ccc(N3CCCCC3)s2)S(=O)(=O)c2ccccc21

>  <QUANTITY UNIT>
µM

>  <LT GT EQ>
>

>  <TGI>
100

$$$$
